- Tested on: Glutamate receptor ionotropic, NMDA 3A (GRIN3A) ligand-binding domain
- assay-comment: binders of NR3A ligand-binding domain, primary screen, biophysical, differential scanning fluorimetry, uHTS (AID 1259313)
- experimental-setup: NR3A LBD differential scanning fluorimetry, at 25 µM, 0% = protein alone, 100% = glycine-bound protein
The whole screen tested about 340,000 compounds, of which about 8,500 (2.5%) were called active.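 Rule for the calls: active = melting temperature shift of at least 10% of the positive control shift, at one fixed dose; inactive = the rest.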 For the sample, actives were picked, then their nearest neighbours and some compounds at random.
Select the matching outcome among Y for active, N for inactive

Cc1ccccc1Nc1nc(N)nc(COC(=O)CCC(=O)c2ccc(F)cc2)n1 :: N
Cc1ccc(OC(=O)CCC(=O)Nc2ccc(Br)cc2)cc1 :: N
CC(=O)Nc1ccc(NC(=O)COc2ccc(S(=O)(=O)NC(C)c3ccccc3)cc2)cc1 (stereo unspecified) :: N
O=C(COc1ccccc1)Nc1ccc(F)cc1 :: N
COCC(=O)Nc1ccc(Br)cc1 :: N

Kindly review the next compound as well.
Query: recorded result category for `CC(=O)Nc1ccc(NC(=O)COc2ccc(-c3ccccc3)cc2)cc1` in this test
Y

----------
- Tested on: Glutamate receptor ionotropic, NMDA 3A (GRIN3A) ligand-binding domain
- assay-comment: binders of NR3A ligand-binding domain, primary screen, biophysical, differential scanning fluorimetry, uHTS (AID 1259313)
- experimental-setup: NR3A LBD differential scanning fluorimetry, at 25 µM, 0% = protein alone, 100% = glycine-bound protein
Out of some 340,000 compounds screened, about 8,500 (2.5%) were called active.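 Rule for the calls: active = melting temperature shift of at least 10% of the positive control shift, at one fixed dose; inactive = the rest.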 Shown is part of a subset that was picked to be rich in actives.
Select the matching outcome among active, inactive

Take a look at these entries with their results.
Cc1csc(NC(=S)Nc2cccc(Cl)c2)n1 :: active
O=C(NNc1ccccc1Cl)C(O)(c1cccc(C(F)(F)F)c1)c1cccc(C(F)(F)F)c1 :: active
Cc1ccc(NC(=O)Nc2cc(-c3ccccc3)nn2C)cc1Cl :: active
Cn1nc(C(F)(F)F)c(C(=O)Nc2cccc(C(F)(F)F)c2)c1SCc1ccc(Cl)cc1 :: inactive
CSc1cccc(NC(=O)CSc2ccccc2)c1 :: inactive
COc1ccc(C)cc1N(C(=O)Cn1nnc(-c2ccc(C)o2)n1)C(C(=O)NC1CCCC1)c1ccncc1 (stereo not given) :: inactive
CC(C)(C)NC(=O)c1cc(NC(=O)c2ccco2)cc(NC(=O)c2ccco2)c1 :: inactive
O=C(O)c1cc(S(=O)(=O)N(Cc2ccccc2)c2cccc(C(F)(F)F)c2)ccc1Cl :: inactive

I would be grateful if you could indicate the recorded call for `O=C(CCS(=O)(=O)c1ccc(Br)cc1)NCCc1ccc(Cl)cc1` .
inactive

Field: outcome | Entry: `Cc1cc(C(=O)N/N=C/c2cc([N+](=O)[O-])cc(C)c2O)n[nH]1`
inactive

Can you look up the reported call for `FC(F)(F)c1cccc(NC(=S)Nc2cccc(Cl)c2)c1` for me?
active

Entry `Cc1cccc(Nc2nc3c(S(=O)(=O)c4ccccc4)nnn3c3ccccc23)c1C` : call = ?
inactive

I would be grateful if you could indicate the recorded call for COc1ccc([C@H]2[C@H](C(C)=O)N3N=Cc4ccccc4C3C23C(=O)OC(C)(C)OC3=O)cc1 (stereo not given in full) .
inactive

Query: recorded result category for `CCOC(=O)c1ccc(NC(=O)CNC(=O)c2ccco2)cc1` in this test
inactive

Which outcome did this test record for the compound `CCC(=O)Nc1nc(C)c(C(=O)Nc2cccc(Cl)c2)s1` ?
inactive

Dear colleague, could you share the recorded outcome for `O=C(Nc1ccc2c(c1)OCO2)c1sc2cc(Cl)ccc2c1Cl` when you have a moment?
inactive

GET /call?item= O=C(NCc1cccs1)c1ccc(CS(=O)Cc2ccccc2Cl)o1 (stereo not given) returns the recorded outcome of this test.
inactive

----------
- Tested on: Glutamate receptor ionotropic, NMDA 3A (GRIN3A) ligand-binding domain
- assay-comment: binders of NR3A ligand-binding domain, primary screen, biophysical, differential scanning fluorimetry, uHTS (AID 1259313)
- experimental-setup: NR3A LBD differential scanning fluorimetry, at 25 µM, stronger effect = higher value, 0% = protein alone, 100% = glycine-bound protein
In all, about 340,000 compounds went through this assay and about 8,500 (2.5%) were called active. The entries come from a sample that favours actives as a whole.
measure: Tm shift relative to glycine control (%)
Your answer should be a plain number; it is taken to be in %.

# count of solved cases: 5
Cc1cc(F)ccc1NC(=S)NCCc1ccccc1 :: -1.3
CCCOc1ccc(Cl)cc1Nc1nc(NCCO)nc(N2CCCC2)n1 :: 1.78
Cc1ccc(Br)c(NS(=O)(=O)c2cccc(C(=O)N3CCNC(=O)C3)c2)c1 :: -2.24
O=C(COC(=O)C1CC2CCCC(C1)C2=O)NC(=O)c1ccccc1 (stereo unspecified) :: -1.22
Cc1ccc(S(=O)(=O)N2CCCCC2)cc1NC(=O)CCNC(=O)c1ccccc1 :: 10.2

Consider the compound `CC(C)C(=O)NCc1cc(-c2ccc(Cl)cc2)no1` and give its measured Tm shift relative to glycine control.
0.32

----------
- Tested on: Glutamate receptor ionotropic, NMDA 3A (GRIN3A) ligand-binding domain
- assay-comment: binders of NR3A ligand-binding domain, primary screen, biophysical, differential scanning fluorimetry, uHTS (AID 1259313)
- experimental-setup: NR3A LBD differential scanning fluorimetry, at 25 µM, stronger effect = higher value, 0% = protein alone, 100% = glycine-bound protein
The whole screen tested about 340,000 compounds, of which about 8,500 (2.5%) were called active. What follows is part of a selection rich in actives, with near analogues and random picks from the rest.
measure: Tm shift relative to glycine control (%)
Hi! Could you send only the number? It should be in %, unit omitted.

Cc1ccc(C(=O)/C=C/c2c(C)nn(-c3ccccc3)c2Cl)cc1 :: -10.2
O=C(Nc1ccccc1)Oc1cccc2cccnc12 :: -3.82
CCOC(=O)Cc1ncccc1C(=O)Nc1ccc(OC)cc1 :: -0.6
Cc1nn(-c2ccccc2)c(C)c1/C=C/C(=O)OC(C)C(N)=O (stereo not given) :: -7.09
CCCCN(C(=O)c1nn(C)c(=O)c2ccccc12)c1c(N)n(CCC)c(=O)[nH]c1=O :: 0.36
O=C(COC(=O)COc1ccccc1F)Nc1cccc(S(=O)(=O)N2CCCCC2)c1 :: -3.69
COC(=O)c1cc(Oc2ccc(S(=O)(=O)N3CCOCC3)cc2[N+](=O)[O-])cc(C(=O)OC)c1 :: 0.08
COc1ccc(N2CCN(C(=O)[C@@H](NC(=O)c3cc(OC)cc(OC)c3)C(C)C)CC2)cc1 :: -0.58

Reported Tm shift relative to glycine control for Glutamate receptor ionotropic, NMDA 3A (GRIN3A) ligand-binding domain, given Cc1ccc(CN2CCC(N3CCC(C(=O)NCC4CCCO4)CC3)CC2)o1 (stereo not given) ?
0.34

Param readout = Tm shift relative to glycine control; param system = Glutamate receptor ionotropic, NMDA 3A (GRIN3A) ligand-binding domain; param query = `O=C(CN1C(=O)c2cccnc2Oc2ccc(Cl)cc21)NCCc1ccccc1` ; response: value
0.65

----------
- Tested on: Glutamate receptor ionotropic, NMDA 3A (GRIN3A) ligand-binding domain
- assay-comment: binders of NR3A ligand-binding domain, primary screen, biophysical, differential scanning fluorimetry, uHTS (AID 1259313)
- experimental-setup: NR3A LBD differential scanning fluorimetry, at 25 µM, stronger effect = higher value, 0% = protein alone, 100% = glycine-bound protein
Among all 340,000 compounds or so, about 8,500 (2.5%) were called active. The list comes from a sample in which actives are over-represented; it also holds close analogues and randomly drawn compounds.
Property: Tm shift relative to glycine control; scope: individual molecules
All answers are understood in %, so give the number only.

Suppose we examine the molecule `COc1ccc(Br)cc1/C=N/Nc1ccc(S(=O)(=O)Nc2ccccc2C(=O)O)cc1[N+](=O)[O-]` ; what Tm shift relative to glycine control value has been reported?
503

Can you share its Tm shift relative to glycine control? I mean this molecule: CC(NC(=O)C(=O)N/N=C/c1ccc(Cl)cc1)c1ccccc1 (stereo not given)
-8.19

Field request: Tm shift relative to glycine control | item: `O=C(Nc1ccc(S(=O)(=O)Nc2nccs2)cc1)c1cccc(S(=O)(=O)N2CCOCC2)c1`
-7.34

Quick one: Tm shift relative to glycine control for `Cc1cc(C)cc(NS(=O)(=O)Cc2ccccc2)c1` ?
1.07

Request the reported Tm shift relative to glycine control associated with `Cc1ccc(CSc2nc3[nH]ncc3c(=O)[nH]2)cc1`
-1.69

Returns the measured Tm shift relative to glycine control for the input molecule. Input: CC(OC(=O)CNC(=O)c1cccc(F)c1)C(=O)NC1CCCCC1C (stereo not given)
-0.43

Any idea what Tm shift relative to glycine control was measured for `COc1cccc(/C=N/Nc2ccc(S(=O)(=O)Nc3ccccc3C(=O)O)cc2[N+](=O)[O-])c1O` ?
22.4

Given the entry `CCS(=O)(=O)Nc1cccc(-c2cc(-c3ccccc3)c3cc(C)ccc3n2)c1` , report its measured Tm shift relative to glycine control.
10.6

Which Tm shift relative to glycine control reading was recorded for the molecule `COc1ccc(S(=O)(=O)Nc2ccc3cn[nH]c3c2)cc1[N+](=O)[O-]` ?
-8.84

Find the recorded Tm shift relative to glycine control belonging to `O=C(Nc1ccc(S(=O)(=O)N2CCOCC2)cc1)c1ccc2ncsc2c1` and report it.
23.1
